Where do these numbers come from? They come from PubChem BioAssay (NCI).

Consider the following molecules; for each one, report its log10 of TGI.
Tested on: HL-60(TB) leukemia
assayProcedure: NCI tumour cell line growth inhibition, 48 h
Quick note: numbers are log10 of TGI, with µM as the unit.

N#Cc1c(NC(=O)c2ccccc2)sc2c1CCC(=O)C2 ... 0.47
CCC1(CC)C(=O)CC[C@@]2(C)C1=CC[C@H]1[C@@H]3CC[C@H](O)[C@@]3(C)CC[C@@H]12 ... 1.67

Here are 6 molecules. What values of log10 of TGI were reported for them?
1. CCOC(=O)c1ccc2nc(NC(=O)COC(=O)CSc3nc(C)cc(C)n3)sc2c1
2. O=C1c2ccccc2C(=O)c2c1ccc(C(Br)Br)c2[N+](=O)[O-]
3. Cc1ccc2nc3c(C)c(Cl)c(=O)cc-3sc2c1
4. O=C1C2c3[nH]c4ccccc4c3[C@@H]3CCCCCCCCCCC3C2C(=O)N1c1ccccc1 (stereo partly drawn)
5. NC(N)=N/N=C/c1c(-c2ccc([N+](=O)[O-])cc2)nc2sccn12
6. OCC(O)C(O)c1nn(-c2ccccc2)c2nc3cc(Cl)c(Cl)cc3nc12 (stereo not drawn)

**Result**
1.53
0.63
1.43
1.48
0.76
1.71

====

Tested on: UO-31 renal
assayProcedure: NCI tumour cell line growth inhibition, 48 h; in the data active means GI50 below about 0.43 µM; inactive means the rest
Write down one outcome, taken from YES (active), NO (inactive)

Please review the following examples before continuing.
CN(C)CCCNc1nn2c(=O)c3ccccc3nc2c2ccccc12 ... NO
COc1ccc(-c2ccc3c(NC(=O)C4CC4)n[nH]c3n2)cc1 ... NO
COc1cc(-c2cc(-c3ccc(N(C)C)cc3)nc(N3CCOCC3)c2C#N)cc(OC)c1OC ... NO

**Query** // return assay outcome for COc1ccc(/C(C)=C(\c2ccc(Cl)cc2)c2ccc(OCCN3CCCC3)cc2)cc1
**Result** NO

**Query** For Oc1ccc2oc3ncc(Cl)c(-c4ccccc4)c3c2c1 then?
**Result** NO

**Query** For CC(C)C[C@H](NC(=O)[C@H](CCc1ccccc1)NC(=O)CN1CCOCC1)C(=O)N[C@@H](Cc1ccccc1)C(=O)N[C@@H](CC(C)C)C(=O)[C@@]1(C)CO1 then?
**Result** YES

**Query** For O=C(c1ccccc1Nc1ccnc(C(F)(F)F)c1)N1CCN(c2cccc(Cl)c2)CC1 then?
**Result** NO

**Query** For COc1ccc(N2CCN(C(=O)c3ccccc3Nc3ccnc(C(F)(F)F)c3)CC2)cc1 then?
**Result** NO

**Query** For CN1/C(=C\C(I)C(I)C2=[N+](C)c3ccccc3C2(C)C)C(C)(C)c2ccccc21 (stereo not given) then?
**Result** NO

**Query** For CC(=O)Oc1ccc(OC(C)=O)c2ccccc12 then?
**Result** NO

**Query** For O=C(/C=C/c1ccc(C(F)(F)F)cc1)c1ccc(Nc2nc(NCCO)nc(NCCO)n2)cc1 then?
**Result** NO

====

Test system: OVCAR-5 ovarian
assayProcedure: NCI tumour cell line growth inhibition, 48 h
Consider the following molecules; for each one, report its GI50.

Here's what some known entries look like.
Cc1c[nH]c2c1C13CC1CN(C(=O)c1cc4cc(NC(=O)c5cc6ccccc6o5)ccc4[nH]1)C3=CC2=O (stereo not drawn) ... > 1.17 ng/mL
O=C1NC(=O)/C(=C/C=C/c2ccccc2)S1 ... 14.1 µM
Nc1ccc(-c2nc3ccc4[nH]ncc4c3c3c2CCCC3)cc1F ... 2.42 µM
Cc1ccc(Cl)cc1Nc1nc(C(F)(F)F)ccc1C(=O)Nc1cccc(C(F)(F)F)c1 ... 2.59 µM
Cn1nc(C(F)(F)F)c(-c2ccc(Cl)c(C(F)(F)F)c2)c1-c1ccc(OCc2ccc(Cl)cc2)cc1O ... 1.83 µM

Here are 3 molecules. What values of GI50 were reported for them?
1. Cc1ccc2c(c1)C(=O)c1c-2n(CCCN)c(=O)c2cc([N+](=O)[O-])ccc12
2. Cl.[Pt].[c-]1ccccc1-c1ccccn1.c1ccc(P(c2ccccc2)C([PH+](c2ccccc2)c2ccccc2)[PH+](c2ccccc2)c2ccccc2)cc1
3. C=C(C=O)C1CC(=O)C(C(=O)OC)[C@@H]2O[C@@](C)(CC2=O)C[C@@H]2OC(=O)[C@]3(O[C@@H]23)[C@@H](C(=O)OC)C1 (stereo partly drawn)

**Result**
1: 0.873 µM; 2: 2.9 µM; 3: 23.1 µM
